Values from PubChem BioAssay AID2685

Assay: qHTS Assay for Lipid Storage Modulators in Drosophila S3 Cells;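 note: cells counted by Cell Tracker Red CMTPX staining in the red channel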
Conditions: BODIPY lipid droplet fluorescence, 18-24 h, cells fed with added oleic acid; measured here: cell count max response
About 2,100 (0.66%) of roughly 320,000 compounds were called active. Inconclusive results (about 53%) are left out. Many of the other results were omitted from the sample, so actives are more common in it than they were.
readout_label: cell number change (%)
Write down the numeric answer in % and omit the unit.

Previously resolved entries follow.
>  <molecule>
COc1ccc(CNC(=O)CCC(=O)Nc2nnc(CC(C)C)s2)cc1

>  <cell number change (%)>
5.14

$$$$
>  <molecule>
Cc1ccc(CNC(=O)CN2C(=O)c3ccccc3S2(=O)=O)cc1

>  <cell number change (%)>
20.7

$$$$
>  <molecule>
CC(=O)Nc1ccc(S(=O)(=O)Nc2nc3ccccc3s2)cc1

>  <cell number change (%)>
-10.9

$$$$
>  <molecule>
FC(F)(F)c1cccc(NC(=S)NCC(c2cccnc2)N2CCOCC2)c1 (centres undefined)

>  <cell number change (%)>
-6.8

$$$$
>  <molecule>
Cc1ccc(C(=O)N2CCN=C2SCc2ccc([N+](=O)[O-])cc2)cc1

>  <cell number change (%)>
4.98

$$$$

Qu. # cell number change lookup, item `CCOc1ccc(CN2CCC(=O)NC2=O)cc1`
Ans. -4.82

Qu. # cell number change lookup, item `Cc1ccc(-c2c(C(=O)Nc3ccccc3C)c(C)[nH]c(=S)c2C#N)o1`
Ans. 5.19

* * *

Experiment: qHTS Assay for Lipid Storage Modulators in Drosophila S3 Cells;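 note: cells counted by Cell Tracker Red CMTPX staining in the red channel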
Conditions: BODIPY lipid droplet fluorescence, 18-24 h, cells fed with added oleic acid; measured here: cell count max response
The campaign covered roughly 320,000 compounds. About 2,100 (0.66%) were called active. Another 53% or so got no clear call; they are omitted. Only a selection was taken, and actives are over-represented in it overall.
// reported cell number change for each item listed
Write down the numeric answer in % and omit the unit.

Previously resolved entries follow.
>  <molecule>
COCCCn1c(=NC(C)=O)c(C#N)cc2c(=O)n3cccc(C)c3nc21

>  <readout_label>
cell number change

>  <value_units>
%

>  <number>
0.683

$$$$
>  <molecule>
CC1(C(=O)OCc2cc(=O)n3cc(Br)ccc3n2)CC1(Cl)Cl (stereo unspecified)

>  <readout_label>
cell number change

>  <value_units>
%

>  <number>
20.1

$$$$
>  <molecule>
CC(C)c1ccc2c(c1)[C@H]1OCC[C@H]1[C@@H](c1cccs1)N2

>  <readout_label>
cell number change

>  <value_units>
%

>  <number>
-7.55

$$$$

Qu. # cell number change lookup, item COCCCn1c(C(=O)NC2CCCCC2C)cc2c(=O)n3cccc(C)c3nc21 (stereo unspecified)
Ans. 8.96

Qu. # cell number change lookup, item COc1ccc(C2C(C(=O)NCc3cccnc3)c3ccccc3C(=O)N2C)cc1OC (stereo unspecified)
Ans. -17.1

Qu. # cell number change lookup, item `Cc1cc(C(=O)N2CCN(S(=O)(=O)c3ccccc3)CC2)c(C)o1`
Ans. 15.7

Qu. # cell number change lookup, item `Cn1c(NC(=O)/C=C\c2ccccc2)cc(=O)n(C)c1=O`
Ans. -2.62

Qu. # cell number change lookup, item `CC(=O)N=c1c(C#N)cc2c(=O)n3cccc(C)c3nc2n1CCCOC(C)C`
Ans. 13.1
